MIC50 values for the compounds below.
test system: E. coli clinical isolates (n = 36); assay: MIC, multidrug-resistant clinical isolates; assay type: cell-based, Escherichia coli; settings: Escherichia coli; E. coli MDR clinical isolates (n = 36); read-out: MIC50
Structures can show the parent of a compound that is named as a salt.

// known answers, use as guide
CNC(C)C1CCC(N)C(OC2C(N)CC(N)C(OC3OCC(C)(O)C(NC)C3O)C2O)O1 (stereo not drawn) [gentamicin, gentamicin sulfate]    2 µg/mL
Cl.O=c1oc2ccc(F)cc2c2[nH]c(CN[C@H]3CC[C@H](n4c(=O)ccc5ccc(F)cc54)CC3)cc12    2 µg/mL

Attention now shifts to the item below.
Recorded MIC50 for "COc1cnc2ncc(=O)n([C@H]3CC[C@H](NCc4cc5c(=O)oc6ccc(F)cc6c5[nH]4)CC3)c2c1" , please?
2 µg/mL

All figures here come from paper PMC7029851.
